- Tested system: human CaSR (Homo sapiens)
- Assay summary: CaSR FLIPR assay (calcilytic activity)
- Type: cell-based
- Set-up: expressed in transfected cells
- Study conditions: HEK293 cells stably expressing human recombinant CaSR; 1 mM CaCl2 agonist; Tables 1-24; read-out: FLIPR ASSAY IC50
pIC50: −log10 of the molar value.
pIC50 vs 7: at or above is 1.0, below is 0.0.

For orientation, consider the following solved cases.
[
  {
    "Compound": "C[C@@H](OC[C@H](O)CNC(C)(C)Cc1ccc(Cl)c(Cl)c1)c1cccc2c1[C@@H]1[C@H](O2)[C@H]1C(=O)O [Example 5-12]",
    "Class label": 1.0
  },
  {
    "Compound": "Cc1ccc([C@@H](C)OC[C@H](O)CNC(C)(C)Cc2ccc(Cl)c(Cl)c2)c2c1O[C@@H]1[C@@H](C(=O)O)[C@H]21 [Example 8-15]",
    "Class label": 1.0
  },
  {
    "Compound": "CC(C)(Cc1ccc2ccccc2c1)NC[C@@H](O)COc1ccc2c(c1)C1C(O2)C1C(=O)O (stereo partly shown) [Example 22-1]",
    "Class label": 0.0
  },
  {
    "Compound": "Cc1ccc([C@@H](C)OC[C@H](O)CNC(C)(C)Cc2ccc3c(c2)CCS3)c2c1O[C@@H]1[C@@H](C(=O)O)[C@H]21 [Example 8-26]",
    "Class label": 1.0
  },
  {
    "Compound": "C[C@@H](OC[C@H](O)CNC(C)(C)Cc1ccc2sccc2c1)c1cccc2c1[C@@H]1[C@H](C2)[C@H]1C(=O)O [Example 13-4]",
    "Class label": 1.0
  }
]

INPUT: Given C[C@@H](OC[C@H](O)CNC(C)(C)Cc1ccc2c(c1)OCCO2)c1cccc2c1O[C@@H]1[C@@H](C(=O)O)[C@H]21 [Example 1-10] , state whether its pIC50 is at least 7.
OUTPUT: 0.0

INPUT: Given Cc1ccc(CC(C)(C)NC[C@@H](O)CO[C@H](C)c2cccc3c2O[C@H]2[C@H](C(=O)O)[C@@H]32)cc1C [Example 2-4] , state whether its pIC50 is at least 7.
OUTPUT: 0.0

---

Examples of compounds with documented pIC50 follow.
- Tested system: human CaSR (Homo sapiens)
- Sequence (P41180 20-1078): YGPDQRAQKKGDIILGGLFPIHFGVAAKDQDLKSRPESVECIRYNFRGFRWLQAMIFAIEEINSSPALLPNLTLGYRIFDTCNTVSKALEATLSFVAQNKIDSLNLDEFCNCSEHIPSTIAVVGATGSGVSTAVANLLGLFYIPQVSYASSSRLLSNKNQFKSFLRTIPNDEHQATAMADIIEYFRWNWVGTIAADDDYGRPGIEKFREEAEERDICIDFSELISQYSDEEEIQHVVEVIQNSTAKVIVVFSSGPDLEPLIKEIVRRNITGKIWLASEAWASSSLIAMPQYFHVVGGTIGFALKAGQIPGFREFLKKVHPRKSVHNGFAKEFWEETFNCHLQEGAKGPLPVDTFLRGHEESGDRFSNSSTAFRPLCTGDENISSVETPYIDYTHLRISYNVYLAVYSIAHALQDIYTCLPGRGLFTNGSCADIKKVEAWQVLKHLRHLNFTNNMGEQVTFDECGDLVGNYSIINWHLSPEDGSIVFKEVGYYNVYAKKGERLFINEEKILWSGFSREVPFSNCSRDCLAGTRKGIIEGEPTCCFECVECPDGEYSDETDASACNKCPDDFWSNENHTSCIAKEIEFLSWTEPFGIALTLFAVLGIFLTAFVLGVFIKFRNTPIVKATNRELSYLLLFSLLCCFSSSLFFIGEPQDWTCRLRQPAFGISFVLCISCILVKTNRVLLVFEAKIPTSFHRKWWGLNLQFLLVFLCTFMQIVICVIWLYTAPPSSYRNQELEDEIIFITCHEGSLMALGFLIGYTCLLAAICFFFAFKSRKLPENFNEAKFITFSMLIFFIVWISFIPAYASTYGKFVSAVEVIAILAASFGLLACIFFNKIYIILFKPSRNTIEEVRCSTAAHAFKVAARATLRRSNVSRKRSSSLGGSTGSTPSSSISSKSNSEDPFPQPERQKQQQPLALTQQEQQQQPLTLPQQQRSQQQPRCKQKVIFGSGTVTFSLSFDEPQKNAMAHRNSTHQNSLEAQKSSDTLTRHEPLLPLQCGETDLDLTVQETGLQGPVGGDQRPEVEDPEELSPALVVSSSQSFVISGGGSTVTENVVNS
- Assay summary: CaSR FLIPR assay (calcilytic activity)
- Assay type: cell-based
- Set-up: expressed in transfected cells
- Study conditions: HEK293 cells stably expressing human recombinant CaSR; 1 mM CaCl2 agonist; Tables 1-24; read-out: FLIPR ASSAY IC50
The read-out pIC50 is expressed as -log10 of concentration in moles per litre.

Recorded results for 2 compounds are shown here.
[
  {
    "Compound": "C[C@@H](OC[C@H](O)CNC(C)(C)Cc1ccc2occc2c1)c1cccc2c1[C@@H]1[C@H](C2)[C@H]1C(=O)O [Example 13-2]",
    "pIC50": 7.33
  },
  {
    "Compound": "CSc1ccc(CC(C)(C)NC[C@@H](O)CO[C@H](C)c2ccc(C)c3c2C2[C@H](O3)[C@H]2C(=O)O)cc1 (stereo partly drawn) [Example 8-23]",
    "pIC50": 7.40
  }
]

Okay, next one:
INPUT: Determine its reported pIC50: C[C@@H](OC[C@H](O)CNC(C)(C)Cc1ccc(Cl)c(F)c1)c1cccc2c1[C@@H]1[C@H](O2)[C@H]1C(=O)O [Example 5-2]
OUTPUT: 7.49

---

- Tested system: human CaSR (Homo sapiens, UniProt P41180)
- Assay summary: CaSR FLIPR assay (calcilytic activity)
- Assay type: cell-based
- Design: expressed in transfected cells
- Study conditions: HEK293 cells stably expressing human recombinant CaSR; 1 mM CaCl2 agonist; Tables 1-24; read-out: FLIPR ASSAY IC50
Outcome measure: IC50 (nM)
Expressed in nM, but write only the number.

[
  {
    "Compound": "Cc1cc(Cl)c([C@@H](C)OC[C@H](O)CNC(C)(C)Cc2ccc3occc3c2)c2c1O[C@@H]1[C@@H](C(=O)O)[C@H]21 [Example 16-2]",
    "Unit of measurement": "nM",
    "IC50": 17
  },
  {
    "Compound": "Cc1cc(Cl)c([C@@H](C)OC[C@H](O)CNC(C)(C)Cc2ccc3ccccc3c2)c2c1O[C@@H]1[C@@H](C(=O)O)[C@H]21 [Example 16-1]",
    "Unit of measurement": "nM",
    "IC50": 9
  }
]

Okay, next one:
INPUT: Determine its reported IC50: Cc1ccc([C@@H](C)OC[C@H](O)CNC(C)(C)CSc2ccc(F)cc2)c2c1O[C@@H]1[C@@H](C(=O)O)[C@H]21 [Example 8-32]
OUTPUT: 1410

---

- Tested system: human CaSR (Homo sapiens, UniProt P41180)
- Assay summary: CaSR FLIPR assay (calcilytic activity)
- Type: cell-based
- Set-up: expressed in transfected cells
- Study conditions: HEK293 cells stably expressing human recombinant CaSR; 1 mM CaCl2 agonist; Tables 1-24; read-out: FLIPR ASSAY IC50
Examples of molecules with documented pIC50 follow.
The read-out pIC50 is expressed as -log10 of concentration in moles per litre.

[
  {
    "Query smiles": "Cc1ccc(CC(C)(C)NC[C@@H](O)CO[C@H](C)c2ccc(C)c3c2[C@@H]2[C@H](O3)[C@H]2C(=O)O)cc1F",
    "Tested system": "human CaSR (Homo sapiens, UniProt P41180)",
    "Outcome measure": "pIC50",
    "Reading": 7.68
  },
  {
    "Query smiles": "COc1ccc(CC(C)(C)NC[C@@H](O)CO[C@H](C)c2c(Cl)cc(C)c3c2[C@@H]2[C@H](O3)[C@H]2C(=O)O)c(F)c1",
    "Tested system": "human CaSR (Homo sapiens, UniProt P41180)",
    "Outcome measure": "pIC50",
    "Reading": 7.62
  }
]

Okay, next one:
INPUT: Determine its reported pIC50: "COc1ccc(CC(C)(C)NC[C@@H](O)CO[C@H](C)c2ccc(C)c3c2[C@H]2[C@@H](O3)[C@@H]2C(=O)O)cc1F"
OUTPUT: 6.65

---

Examples of compounds with documented pIC50 follow.
- Tested system: human CaSR (Homo sapiens, UniProt P41180)
- Sequence (P41180 20-1078): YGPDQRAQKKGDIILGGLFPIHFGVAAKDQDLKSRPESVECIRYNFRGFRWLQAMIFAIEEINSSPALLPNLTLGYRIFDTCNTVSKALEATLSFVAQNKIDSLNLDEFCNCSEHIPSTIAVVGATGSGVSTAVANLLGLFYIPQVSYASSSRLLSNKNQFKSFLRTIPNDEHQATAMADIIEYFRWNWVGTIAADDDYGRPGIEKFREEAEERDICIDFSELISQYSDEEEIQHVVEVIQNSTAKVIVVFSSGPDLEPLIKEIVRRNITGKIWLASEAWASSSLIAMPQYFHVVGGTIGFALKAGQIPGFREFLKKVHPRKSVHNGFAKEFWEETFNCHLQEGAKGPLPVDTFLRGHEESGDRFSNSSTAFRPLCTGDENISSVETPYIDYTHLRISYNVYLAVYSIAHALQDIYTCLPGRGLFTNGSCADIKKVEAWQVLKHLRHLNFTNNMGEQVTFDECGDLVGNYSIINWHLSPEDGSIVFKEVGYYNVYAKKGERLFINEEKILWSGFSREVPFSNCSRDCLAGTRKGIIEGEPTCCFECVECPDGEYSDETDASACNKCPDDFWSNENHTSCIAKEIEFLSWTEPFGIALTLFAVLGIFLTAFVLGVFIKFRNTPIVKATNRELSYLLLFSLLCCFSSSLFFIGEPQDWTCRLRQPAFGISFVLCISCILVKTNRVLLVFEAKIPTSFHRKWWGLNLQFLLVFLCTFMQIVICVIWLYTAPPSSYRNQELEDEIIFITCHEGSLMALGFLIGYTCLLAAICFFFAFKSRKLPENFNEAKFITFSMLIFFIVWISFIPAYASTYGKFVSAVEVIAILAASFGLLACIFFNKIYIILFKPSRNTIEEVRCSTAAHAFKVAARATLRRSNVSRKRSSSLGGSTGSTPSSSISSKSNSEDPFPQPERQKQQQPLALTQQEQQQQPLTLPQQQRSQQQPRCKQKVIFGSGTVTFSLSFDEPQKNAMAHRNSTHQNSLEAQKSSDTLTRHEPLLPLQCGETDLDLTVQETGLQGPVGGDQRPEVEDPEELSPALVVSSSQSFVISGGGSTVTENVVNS
- Assay summary: CaSR FLIPR assay (calcilytic activity)
- Assay type: cell-based
- Set-up: expressed in transfected cells
- Study conditions: HEK293 cells stably expressing human recombinant CaSR; 1 mM CaCl2 agonist; Tables 1-24; read-out: FLIPR ASSAY IC50
The read-out pIC50 is expressed as -log10 of concentration in moles per litre.

Recorded results for 3 compounds are shown here.
[
  {
    "Query smiles": "CSc1ccc(CC(C)(C)NC[C@@H](O)CO[C@H](C)c2cccc3c2[C@@H]2[C@H](O3)[C@H]2C(=O)O)cc1C",
    "pIC50": 7.01
  },
  {
    "Query smiles": "Cc1ccc([C@@H](C)OC[C@H](O)CNC(C)(C)Cc2ccc(Cl)c(F)c2)c2c1O[C@H]1[C@H](C(=O)O)[C@@H]21",
    "pIC50": 7.11
  },
  {
    "Query smiles": "Cc1ccc([C@@H](C)OC[C@H](O)CNC(C)(C)Cc2ccc(F)c(F)c2)c2c1O[C@@H]1[C@@H](C(=O)O)[C@H]21",
    "pIC50": 6.86
  }
]

INPUT: Determine its reported pIC50: "Cc1ccc(CC(C)(C)NC[C@@H](O)CO[C@H](C)c2cccc3c2O[C@@H]2[C@@H](C(=O)O)[C@H]32)c(F)c1"
OUTPUT: 6.85

INPUT: Determine its reported pIC50: "C[C@@H](OC[C@H](O)CNC(C)(C)Cc1ccc2ccccc2c1)c1cccc2c1[C@H]1[C@@H](O2)[C@@H]1C(=O)O"
OUTPUT: 7.10

INPUT: Determine its reported pIC50: "Cc1ccc([C@@H](C)OC[C@H](O)CNC(C)(C)Cc2cccc3ccccc23)c2c1O[C@@H]1[C@@H](C(=O)O)[C@H]21"
OUTPUT: 6.92
